Test: Total plasma concentration in nude mouse allografted with mouse Ba/F3 cells expressing JAK2 TEL domain at 5 mg/kg, po qd measured at 8 hrs
Assay type: ADME, organism-based, BaF3
Set-up: dose 5 mg/kg, route oral
PROPERTY_NAME: concentration at 8 h

Value of measured concentration at 8 h for the entry Cc1cc(Nc2nc(N[C@@H](C)c3ncc(F)cc3F)c(F)c(N3CCOCC3)n2)n[nH]1 : 55 ng/mL

###

For each record, write down the corresponding Vd.
Experiment: Volume of distribution at steady state in Han Wistar rat at 10 mg/kg, po and 3 mg/kg, iv
Format: ADME, organism-based
Conditions: in vivo, read-out: Vdss
One number for each entry, in L/kg.

INSERT INTO assay_data (smiles_repr, property_name, output_unit, result_value) VALUES
  ('Cc1cc(Nc2nc(N[C@@H](C)c3ncc(F)cc3F)c(F)c(N3CCOCC3)n2)n[nH]1', 'Vd', 'L/kg', 3.1);

Value of measured Vd for the entry Cc1cc(Nc2nc(O[C@@H](C)c3ncc(F)cn3)c(F)c(N3CCOCC3)n2)n[nH]1 : 1.6

###

Test: Oral bioavailability in Han Wistar rat at 10 mg/kg
Format: ADME, organism-based
Conditions: in vivo
For each record, write down the corresponding bioavailability.
One number for each entry, in %.

INSERT INTO measurements (smiles_repr, property_name, result_value) VALUES
  ('Cc1cc(Nc2nc(N[C@@H](C)c3ncc(F)cc3F)c(F)c(N3CCOCC3)n2)n[nH]1', 'bioavailability', 51);

Value of measured bioavailability for the entry Cc1cc(Nc2nc(O[C@@H](C)c3ncc(F)cn3)c(F)c(N3CCOCC3)n2)n[nH]1 : 74

###

Test: Clearance in Han Wistar rat at 10 mg/kg, po and 3 mg/kg, iv
Type: ADME, organism-based
Settings: in vivo
For each record, write down the corresponding clearance.
Numbers only, in mL/min/kg.

INSERT INTO results (smiles_repr, result_value) VALUES
  ('Cc1cc(Nc2nc(N[C@@H](C)c3ncc(F)cc3F)c(F)c(N3CCOCC3)n2)n[nH]1', 12);

Attention now shifts to the item below.
Value of measured clearance for the entry Cc1cc(Nc2nc(O[C@@H](C)c3ncc(F)cn3)c(F)c(N3CCOCC3)n2)n[nH]1 : 11

###

For each record, write down the corresponding Vd.
Assay: Volume of distribution at steady state in beagle dog at 5 mg/kg, po and 2.5 mg/kg, iv
Assay type: ADME, organism-based, Canis lupus familiaris
Conditions: in vivo, read-out: Vdss
Numbers only, in L/kg.

INSERT INTO measurements (smiles_repr, result_value) VALUES
  ('Cc1cc(Nc2nc(N[C@@H](C)c3ncc(F)cc3F)c(F)c(N3CCOCC3)n2)n[nH]1', 2.5);

Attention now shifts to the item below.
Value of measured Vd for the entry Cc1cc(Nc2nc(O[C@@H](C)c3ncc(F)cn3)c(F)c(N3CCOCC3)n2)n[nH]1 : 2.4

###

Test: Fraction unbound in nude mouse plasma allografted with mouse Ba/F3 cells expressing JAK2 TEL domain at 5 to 10 mg/kg, po qd after 6 hrs
Format: ADME, organism-based, BaF3
Parameters: dose 5-10 mg/kg, route oral
PROPERTY_NAME: fraction unbound at 6 h
Give bare numbers.

INSERT INTO assay_data (smiles_repr, result_value) VALUES
  ('Cc1cc(Nc2nc(N[C@@H](C)c3ncc(F)cc3F)c(F)c(N3CCOCC3)n2)n[nH]1', 0.06);

Attention now shifts to the item below.
Value of measured fraction unbound at 6 h for the entry Cc1cc(Nc2nc(O[C@@H](C)c3ncc(F)cn3)c(F)c(N3CCOCC3)n2)n[nH]1 : 0.16

###

For each record, write down the corresponding concentration at 6 h.
Assay: Total plasma concentration in nude mouse allografted with mouse Ba/F3 cells expressing JAK2 TEL domain at 10 mg/kg, po qd measured at 6 hrs
Assay type: ADME, organism-based, BaF3
Design: dose 10 mg/kg, route oral
Answers are plain numbers, in ng/mL.

INSERT INTO measurements (smiles_repr, property_name, result_value) VALUES
  ('Cc1cc(Nc2nc(O[C@@H](C)c3ncc(F)cn3)c(F)c(N3CCOCC3)n2)n[nH]1', 'concentration at 6 h', 246);

Value of measured concentration at 6 h for the entry Cc1cc(Nc2nc(N[C@@H](C)c3ncc(F)cc3F)c(F)c(N3CCOCC3)n2)n[nH]1 : 248

###

For each record, write down the corresponding log10 IC50.
Target: Tyrosine-protein kinase JAK2 (Homo sapiens)
Sequence (O60674 whole entry): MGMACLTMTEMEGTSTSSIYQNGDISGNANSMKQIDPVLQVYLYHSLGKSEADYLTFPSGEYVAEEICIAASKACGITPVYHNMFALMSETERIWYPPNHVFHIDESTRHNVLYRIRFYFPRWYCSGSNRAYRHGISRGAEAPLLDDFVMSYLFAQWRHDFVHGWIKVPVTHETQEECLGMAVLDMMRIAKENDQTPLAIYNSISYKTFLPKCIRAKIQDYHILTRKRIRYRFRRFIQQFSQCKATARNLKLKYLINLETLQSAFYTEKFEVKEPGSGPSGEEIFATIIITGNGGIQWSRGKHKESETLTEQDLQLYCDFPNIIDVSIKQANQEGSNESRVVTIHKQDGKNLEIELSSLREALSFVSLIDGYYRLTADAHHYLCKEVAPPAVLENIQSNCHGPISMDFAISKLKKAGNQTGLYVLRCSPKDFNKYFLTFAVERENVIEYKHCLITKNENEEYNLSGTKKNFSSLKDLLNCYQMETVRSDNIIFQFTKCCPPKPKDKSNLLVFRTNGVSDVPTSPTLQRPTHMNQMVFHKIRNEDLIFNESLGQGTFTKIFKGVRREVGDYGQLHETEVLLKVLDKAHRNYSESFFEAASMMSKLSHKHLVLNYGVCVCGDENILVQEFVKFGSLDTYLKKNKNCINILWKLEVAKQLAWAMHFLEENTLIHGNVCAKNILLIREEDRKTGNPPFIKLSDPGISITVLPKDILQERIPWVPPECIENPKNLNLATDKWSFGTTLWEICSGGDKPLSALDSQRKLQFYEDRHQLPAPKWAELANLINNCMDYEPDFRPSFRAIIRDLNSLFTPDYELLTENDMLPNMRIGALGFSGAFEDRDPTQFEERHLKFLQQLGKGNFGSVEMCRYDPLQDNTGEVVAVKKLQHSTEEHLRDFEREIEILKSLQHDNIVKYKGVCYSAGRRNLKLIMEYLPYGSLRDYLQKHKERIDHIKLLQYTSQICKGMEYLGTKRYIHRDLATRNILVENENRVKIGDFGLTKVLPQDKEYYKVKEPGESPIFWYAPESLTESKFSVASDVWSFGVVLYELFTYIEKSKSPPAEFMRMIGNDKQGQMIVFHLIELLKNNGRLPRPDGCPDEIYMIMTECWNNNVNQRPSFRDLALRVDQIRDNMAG
Assay: Inhibition of JAK2 (unknown origin) using biotinylated TYK2 peptide as substrate after 60 mins
A difference of one corresponds to tenfold IC50; all values are log10 with IC50 in nM.

INSERT INTO results (smiles_repr, test_target, result_value) VALUES
  ('Cc1cc(Nc2nc(N[C@@H](C)c3ccc(F)cn3)c(F)c(N3CCN(S(C)(=O)=O)CC3)n2)n[nH]1', 'Tyrosine-protein kinase JAK2 (Homo sapiens)', 0.48),
  ('Cc1cnc(Nc2nc(N[C@@H](C)c3ncc(F)cn3)c(F)c(N3CCOCC3)n2)s1', 'Tyrosine-protein kinase JAK2 (Homo sapiens)', 1.30);

Report log10 IC50 for every entry below.
1. Cc1cc(Nc2nc(N[C@@H](C)c3ccc(F)cn3)c(F)c(N3CCOCC3)n2)n[nH]1
2. COc1cc(Nc2nc(N[C@@H](C)c3ncc(F)cn3)c(F)c(N3CCOCC3)n2)n[nH]1
3. Cc1cc(Nc2nc(O[C@@H](C)c3ncc(F)cc3F)c(F)c(N3CCOCC3)n2)n[nH]1

## Output
1: 0.78; 2: 1.57; 3: 0.60

###

Target: Tyrosine-protein kinase JAK3 (Homo sapiens, UniProt P52333)
Sequence (P52333 whole entry): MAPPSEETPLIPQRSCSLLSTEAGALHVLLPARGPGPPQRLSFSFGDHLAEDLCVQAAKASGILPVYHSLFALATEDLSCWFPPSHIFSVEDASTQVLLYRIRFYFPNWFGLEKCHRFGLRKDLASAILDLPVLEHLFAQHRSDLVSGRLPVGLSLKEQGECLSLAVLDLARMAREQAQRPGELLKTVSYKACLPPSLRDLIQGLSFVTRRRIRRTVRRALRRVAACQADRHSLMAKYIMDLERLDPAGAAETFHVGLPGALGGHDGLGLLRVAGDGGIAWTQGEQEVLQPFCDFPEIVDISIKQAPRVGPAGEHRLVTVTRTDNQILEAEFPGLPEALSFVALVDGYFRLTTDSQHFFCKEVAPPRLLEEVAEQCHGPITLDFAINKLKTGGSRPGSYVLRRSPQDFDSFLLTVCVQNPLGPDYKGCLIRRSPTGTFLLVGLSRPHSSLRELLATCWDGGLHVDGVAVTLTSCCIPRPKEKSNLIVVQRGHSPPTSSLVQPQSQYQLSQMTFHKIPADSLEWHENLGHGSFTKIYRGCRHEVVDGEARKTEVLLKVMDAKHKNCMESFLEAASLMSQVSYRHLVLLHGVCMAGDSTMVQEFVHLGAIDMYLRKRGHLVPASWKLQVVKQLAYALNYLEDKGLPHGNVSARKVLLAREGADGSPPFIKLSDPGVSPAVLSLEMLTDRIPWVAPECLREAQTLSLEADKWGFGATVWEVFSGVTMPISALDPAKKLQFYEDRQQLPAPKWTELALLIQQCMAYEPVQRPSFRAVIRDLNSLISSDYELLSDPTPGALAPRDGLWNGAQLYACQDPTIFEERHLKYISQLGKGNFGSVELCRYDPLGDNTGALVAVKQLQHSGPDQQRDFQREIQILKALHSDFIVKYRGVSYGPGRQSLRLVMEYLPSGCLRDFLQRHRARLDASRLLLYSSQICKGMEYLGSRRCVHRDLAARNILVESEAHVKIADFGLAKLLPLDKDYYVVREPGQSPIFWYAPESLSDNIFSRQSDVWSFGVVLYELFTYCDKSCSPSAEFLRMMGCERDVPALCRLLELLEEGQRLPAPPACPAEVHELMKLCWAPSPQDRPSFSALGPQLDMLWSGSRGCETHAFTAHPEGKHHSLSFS
Assay: Inhibition of JAK3 (unknown origin) using biotinylated poly-EY peptide as substrate after 60 mins by HTRF assay
PROPERTY_NAME: IC50 (µM)
Numbers only, in µM.

INSERT INTO measurements (smiles_repr, test_target, output_unit, result_value) VALUES
  ('Cc1cc(Nc2nc(N[C@@H](C)c3ncc(F)cn3)c(F)c(N3CCOCC3)n2)[nH]n1', 'Tyrosine-protein kinase JAK3 (Homo sapiens, UniProt P52333)', 'µM', 0.229),
  ('Cc1cc(Nc2nc(N[C@@H](C)c3ccc(F)cn3)c(Cl)c(N3CCOCC3)n2)[nH]n1', 'Tyrosine-protein kinase JAK3 (Homo sapiens, UniProt P52333)', 'µM', 0.262);

Report IC50 for every entry below.
1. COc1cc(Nc2nc(N[C@@H](C)c3ncc(F)cn3)c(F)c(N3CCOCC3)n2)n[nH]1
2. Cc1cc(Nc2nc(N[C@@H](C)c3ccc(F)cn3)c(F)c(N3CCN(S(C)(=O)=O)CC3)n2)n[nH]1
3. Cc1cc(Nc2nc(N[C@@H](C)c3ccc(F)cn3)c(F)c(N3CCOCC3)n2)n[nH]1
4. Cc1cc(Nc2nc(N[C@@H](C)c3ncc(F)cn3)cc(N3CCOCC3)n2)n[nH]1
5. Cc1cc(Nc2nc(O[C@@H](C)c3ncc(F)cn3)c(F)c(N3CCOCC3)n2)n[nH]1
6. Cc1cc(Nc2nc(O[C@@H](C)c3ccc(F)cn3)c(F)c(N3CCOCC3)n2)n[nH]1

## Output
11.2
0.02
0.262
0.095
0.02
0.087

Record Cc1cc(Nc2nc(N[C@@H](C)c3ncc(F)cc3F)c(F)c(N3CCOCC3)n2)n[nH]1 ; system Tyrosine-protein kinase JAK3 (Homo sapiens, UniProt P52333); IC50 = 0.008

###

Test: Total plasma concentration in nude mouse allografted with mouse Ba/F3 cells expressing JAK2 TEL domain administered as po qd measured at 6 hrs
Format: ADME, organism-based, BaF3
PROPERTY_NAME: concentration at 6 h (ng/mL)
Give bare numbers, in ng/mL.

Value of measured concentration at 6 h for the entry Cc1cnc(Nc2nc(N[C@@H](C)c3ncc(F)cn3)c(F)c(N3CCOCC3)n2)s1 : 185

###

Assay: Total plasma concentration in nude mouse allografted with mouse Ba/F3 cells expressing JAK2 TEL domain at 10 mg/kg, po qd measured at 8 hrs
Assay type: ADME, organism-based, BaF3
Design: dose 10 mg/kg, route oral
PROPERTY_NAME: concentration at 8 h (ng/mL)
Answers are plain numbers, in ng/mL.

Value of measured concentration at 8 h for the entry Cc1cc(Nc2nc(N[C@@H](C)c3ncc(F)cc3F)c(F)c(N3CCOCC3)n2)n[nH]1 : 123

###

Assay: AUC in CD1 mouse at 10 mg/kg, po and 3 mg/kg, iv
Type: ADME, organism-based
Details: plasma
For each record, write down the corresponding AUC.
Give bare numbers, in µM·h.

INSERT INTO measurements (smiles_repr, result_value) VALUES
  ('Cc1cc(Nc2nc(O[C@@H](C)c3ncc(F)cn3)c(F)c(N3CCOCC3)n2)n[nH]1', 14.7);

Attention now shifts to the item below.
Value of measured AUC for the entry Cc1cc(Nc2nc(N[C@@H](C)c3ncc(F)cc3F)c(F)c(N3CCOCC3)n2)n[nH]1 : 13.3

FYI, the data here is from ChEMBL document CHEMBL2380256.
